molecules and their reported IC50
tested.target: HeLa cell IDO1 (Homo sapiens (Human))
test.name: HeLa cell based IDO1 inhibition assay (kynurenine readout, IFN-γ induced)
conditions: HeLa cells
assay.endpoint: IC50

> print(dat)
                                   molecule                          tested.target  value.measured
1  N#Cc1ccc(S(=O)(=O)NC2C3CC4CC2CC(C(O)CC2c5c(F)cccc5-c5cncn52)(C4)C3)cc1 (single isomer, unassigned) [Compound 69B]  HeLa cell IDO1 (Homo sapiens (Human))  500 to 1000 nM
2  N#Cc1ccc(S(=O)(=O)NC23CC4CC(C2)C(C(O)CC2c5ccccc5-c5cncn52)C(C4)C3)cc1 (single isomer, unassigned) [Compound 165A]  HeLa cell IDO1 (Homo sapiens (Human))        < 100 nM
3  OC(CC1c2c(F)cccc2-c2cncn21)C12CC3CC(CC(C3)C1)C2 (stereo not drawn) [Compound 21]  HeLa cell IDO1 (Homo sapiens (Human))        < 100 nM

====

tested.target: recombinant TDO2 (Homo sapiens (Human))
Sequence (P48775 whole entry, species assumed): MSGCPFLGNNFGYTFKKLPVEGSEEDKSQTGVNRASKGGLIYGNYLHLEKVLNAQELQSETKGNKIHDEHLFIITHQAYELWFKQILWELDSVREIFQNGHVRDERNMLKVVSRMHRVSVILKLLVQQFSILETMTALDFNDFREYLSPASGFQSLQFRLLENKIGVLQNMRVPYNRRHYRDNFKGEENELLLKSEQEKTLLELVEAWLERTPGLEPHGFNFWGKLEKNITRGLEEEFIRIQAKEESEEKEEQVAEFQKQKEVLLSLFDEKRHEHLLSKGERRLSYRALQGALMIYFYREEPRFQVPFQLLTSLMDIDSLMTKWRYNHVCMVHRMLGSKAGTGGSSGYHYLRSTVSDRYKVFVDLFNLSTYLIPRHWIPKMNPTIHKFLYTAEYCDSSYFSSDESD
test.name: TDO2 enzymatic assay (UV absorption at 321 nm)
conditions: 50 nM TDO2, 200 μM tryptophan, 75 min
Consider the following compounds and their measured IC50 readings.
assay.endpoint: IC50

> print(dat)
                                   compound                            tested.target  assay.endpoint      value.measured
1  CC1(O)C2CC3CC1CC(C(O)CC1c4ccccc4-c4cncn41)(C3)C2 (stereo not drawn) [Compound 11A-2]  recombinant TDO2 (Homo sapiens (Human))            IC50            < 500 nM
2  O=S(=O)(Cc1ccccc1)NC1C2CC3CC1CC([C@H](O)CC1c4c(F)cccc4-c4cncn41)(C3)C2 (stereo partly drawn) [Compound 45A-1]  recombinant TDO2 (Homo sapiens (Human))            IC50            < 500 nM
3  O=S(=O)(Cc1ccccc1)NC1C2CC3CC1CC([C@@H](O)CC1c4c(F)cccc4-c4cncn41)(C3)C2 (stereo partly drawn) [Compound 45A-4]  recombinant TDO2 (Homo sapiens (Human))            IC50    1000 to 10000 nM
4  OC1C2CC3CC1CC([C@@H](O)CC1c4c(F)cccc4-c4cncn41)(C3)C2 (stereo partly drawn) [Compound 23A-3]  recombinant TDO2 (Homo sapiens (Human))            IC50            < 500 nM
5  OC1C2CC3CC1CC([C@H](O)CC1c4c(F)cccc4-c4cncn41)(C3)C2 (stereo partly drawn) [Compound 26A-3]  recombinant TDO2 (Homo sapiens (Human))            IC50            < 500 nM
6  Nc1nonc1C(=NO)Nc1ccc(F)c(Cl)c1 [Ref. B, reference compound]  recombinant TDO2 (Homo sapiens (Human))            IC50  10000 to 100000 nM

====

tested.target: HeLa cell IDO1 (Homo sapiens (Human), UniProt P14902)
Sequence (P14902 whole entry): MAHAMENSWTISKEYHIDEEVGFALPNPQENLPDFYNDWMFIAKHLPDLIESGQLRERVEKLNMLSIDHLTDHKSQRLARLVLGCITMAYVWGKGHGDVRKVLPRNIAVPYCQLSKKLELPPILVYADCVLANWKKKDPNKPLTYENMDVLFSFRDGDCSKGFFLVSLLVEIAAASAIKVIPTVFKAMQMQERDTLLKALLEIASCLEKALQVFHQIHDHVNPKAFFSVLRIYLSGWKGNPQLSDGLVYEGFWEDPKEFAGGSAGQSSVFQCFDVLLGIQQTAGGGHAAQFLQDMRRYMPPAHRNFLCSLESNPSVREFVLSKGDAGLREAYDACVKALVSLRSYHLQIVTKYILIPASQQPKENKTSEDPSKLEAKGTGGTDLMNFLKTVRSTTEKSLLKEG
test.name: HeLa cell based IDO1 inhibition assay (kynurenine readout, IFN-γ induced)
conditions: HeLa cells
Entries and their IC50
assay.endpoint: IC50

> print(dat)
                                    molecule  value.measured
 1  O=S(=O)(NC1C2CC3CC1CC(C(O)CC1c4c(F)cccc4-c4cncn41)(C3)C2)C1CC1 (stereo not shown) [Compound 81A]        < 100 nM
 2  Cc1ccc(NC(=O)NC2C3CC4CC2CC(C(O)CC2c5c(F)cccc5-c5cncn52)(C4)C3)cc1 (stereo not shown) [Compound 97]        < 100 nM
 3  O=C(Nc1ccccc1)NC12CC3CC(C1)C(C(O)CC1c4ccccc4-c4cncn41)C(C3)C2 (stereo not shown) [Compound 162A]   100 to 500 nM
 4  CC1(O)C2CC3CC1CC([C@H](O)CC1c4ccccc4-c4cncn41)(C3)C2 (stereo partly shown) [Compound 14A-4]        < 100 nM
 5  OC(CC1c2ccccc2-c2cncn21)C12CC3CC(CC(C3)C1)C2 (stereo not shown) [Compound 13]   100 to 500 nM
 6  O=C(C[C@@H]1c2ccccc2-c2cncn21)C12CC3CC(CC(C3)C1)C2 (single isomer, unassigned) [Compound 1-3]        < 100 nM
 7  O=C(Nc1ccc(F)c(F)c1)NC1C2CC3CC1CC(C(O)CC1c4c(F)cccc4-c4cncn41)(C3)C2 (stereo not shown) [Compound 108A]        < 100 nM
 8  OC(CC1c2c(F)cccc2-c2cncn21)C12CC3CC(CC(O)(C3)C1)C2 (stereo not shown) [Compound 22]   100 to 500 nM
 9  O=C(C[C@H]1c2ccccc2-c2cncn21)C12CC3CC(CC(C3)C1)C2 (single isomer, unassigned) [Compound 1-2]   100 to 500 nM
10  O=S(=O)(Cc1ccccc1)NC1C2CC3CC1CC([C@H](O)CC1c4c(F)cccc4-c4cncn41)(C3)C2 (stereo partly shown) [Compound 45A-1]        < 100 nM
11  O=C(Nc1ccccc1)NC1C2CC3CC1CC(C(O)CC1c4c(F)cccc4-c4cncn41)(C3)C2 (stereo not shown) [Compound 55]        < 100 nM
12  O=C(CC1CCCCC1)NC1C2CC3CC1CC(C(O)CC1c4c(F)cccc4-c4cncn41)(C3)C2 (stereo not shown) [Compound 49]        < 100 nM
13  OC1C2CC3CC1CC([C@H](O)CC1c4c(F)cccc4-c4cncn41)(C3)C2 (stereo partly shown) [Compound 23A]        < 100 nM
14  O=S(=O)(Cc1ccccc1)NC1C2CC3CC1CC(C(O)CC1c4c(F)cccc4-c4cncn41)(C3)C2 (stereo not shown) [Compound 45A]        < 100 nM
15  O=S(=O)(CC1CCC1)NC1C2CC3CC1CC(C(O)CC1c4c(F)cccc4-c4cncn41)(C3)C2 (single isomer, unassigned) [Compound 67B]        < 100 nM
16  OC(CC1c2c(F)cccc2-c2cncn21)C12CC3CC(C1)C(Nc1nc4ccccc4o1)C(C3)C2 (stereo not shown) [Compound 124A]        < 100 nM
17  N#Cc1ccc(S(=O)(=O)NC23CC4CC(C2)C(C(O)CC2c5ccccc5-c5cncn52)C(C4)C3)cc1 (single isomer, unassigned) [Compound 165B]  500 to 1000 nM
18  N#Cc1ccc(NC(=O)NC2C3CC4CC2CC(C(O)CC2c5c(F)cccc5-c5cncn52)(C4)C3)cc1 (stereo not shown) [Compound 100]        < 100 nM
19  CC1(O)C2CC3CC1CC(C(O)CC1c4ccccc4-c4cncn41)(C3)C2 (stereo not shown) [Compound 11A]        < 100 nM
20  OC1C2CC3CC1CC([C@H](O)CC1c4c(F)cccc4-c4cncn41)(C3)C2 (stereo partly shown) [Compound 23A-1]   100 to 500 nM
21  CS(=O)(=O)Nc1ccc(S(=O)(=O)NC2C3CC4CC2CC(C(O)CC2c5c(F)cccc5-c5cncn52)(C4)C3)cc1 (stereo not shown) [Compound 87]  500 to 1000 nM
22  CC(C)(O)CCOC1C2CC3CC1CC(C(O)CC1c4c(F)cccc4-c4cncn41)(C3)C2 (stereo not shown) [Compound 58]        < 100 nM
23  O=S(=O)(NC1C2CC3CC1CC(C(O)CC1c4c(F)cccc4-c4cncn41)(C3)C2)c1ccccc1 (single isomer, unassigned) [Compound 47A]        < 100 nM
24  O=C(NC1C2CC3CC1CC(C(O)CC1c4ccccc4-c4cncn41)(C3)C2)c1ccccc1 (single isomer, unassigned) [Compound 52B]        < 100 nM
25  OC1C2CC3CC1CC([C@H](O)CC1c4c(F)cccc4-c4cncn41)(C3)C2 (stereo partly shown) [Compound 26A-3]        < 100 nM
26  OC(CC1c2ccccc2-c2cncn21)C12CC3CC(C1)C(Nc1nc4ccccc4o1)C(C3)C2 (stereo not shown) [Compound 123]        < 100 nM
27  O=C(Nc1ccccc1)NC1C2CC3CC1CC(C(O)CC1c4c(F)cccc4-c4cncn41)(C3)C2 (single isomer, unassigned) [Compound 55B]   100 to 500 nM
28  N#Cc1ccc(S(=O)(=O)NC2C3CC4CC2CC(C(O)CC2c5c(F)cccc5-c5cncn52)(C4)C3)cc1 (single isomer, unassigned) [Compound 69A]        < 100 nM
